- target-desc: Sterol O-acyltransferase 1 (Homo sapiens)
- Sequence (P35610 whole entry): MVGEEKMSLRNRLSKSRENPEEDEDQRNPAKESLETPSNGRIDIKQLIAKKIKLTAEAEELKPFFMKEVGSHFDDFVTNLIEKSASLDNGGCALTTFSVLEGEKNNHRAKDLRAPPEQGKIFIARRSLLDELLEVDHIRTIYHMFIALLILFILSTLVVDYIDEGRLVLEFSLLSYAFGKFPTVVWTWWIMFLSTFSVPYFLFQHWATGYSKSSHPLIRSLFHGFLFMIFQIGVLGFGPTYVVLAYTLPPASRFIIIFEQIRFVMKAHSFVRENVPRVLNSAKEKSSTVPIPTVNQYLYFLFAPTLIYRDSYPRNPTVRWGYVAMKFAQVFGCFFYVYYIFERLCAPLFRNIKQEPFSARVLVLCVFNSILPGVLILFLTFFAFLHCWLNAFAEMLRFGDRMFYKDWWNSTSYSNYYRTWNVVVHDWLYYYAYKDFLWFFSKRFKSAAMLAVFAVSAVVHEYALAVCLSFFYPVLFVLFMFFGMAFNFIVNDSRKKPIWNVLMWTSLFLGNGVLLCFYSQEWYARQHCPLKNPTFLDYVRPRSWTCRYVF
- test: In vitro inhibitory concentration against […] derived from smooth muscle cells from thoracic aorta of monkeys
parameter: IC50 (nM)
Give the value, in units of nM, as a plain number.

*Q* Recorded IC50 for CCCCCCCN(Cc1ccco1)C(=O)Nc1cc(C)c(C)cc1C , please?
*A* 140
